- ASSAY_TARGET: human carbonic anhydrase isoenzyme II (hCA II) (Homo sapiens)
Examples of compounds with documented IC50 follow.

COMPOUND	IC50
NS(=O)(=O)N1CCC2(CC1)CC(=O)c1ccccc1O2 [Example 1]	6.6 µM
NS(=O)(=O)N1CCC2(CC1)CC(=O)c1cc(Cl)ccc1O2 [Example 4]	6.4 µM
COc1ccc2c(c1)C(=O)CC1(CCN(S(N)(=O)=O)CC1)O2 [Example 3]	7.7 µM

Origin of measurements: patent US7547708B2
